Origin of values: the supplement of paper PMC6757056

B1: library; a variant is named by its letters at N, in order (parent)
chain: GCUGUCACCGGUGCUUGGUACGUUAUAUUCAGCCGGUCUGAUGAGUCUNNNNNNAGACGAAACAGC

# Variants of: B1
# procedure-summary: normalized RNA/DNA level without ligand (relative to sTRSVctl = 100) (log10 (% of sTRSVctl)); HEK293T overexpressing SLC46A1; higher = less ribozyme self-cleavage, higher mRNA level
# study-conditions: without (6R,S)-folinic acid; ligand present: no
assay-readout: normalized RNA/DNA level without ligand (log10)
Give your answer as a number; write no unit.

GET /values?readout=normalized RNA/DNA level without ligand (log10)&item= GCUGUCACCGGUGCUUGGUACGUUAUAUUCAGCCGGUCUGAUGAGUCUAGUUAAAGACGAAACAGC [AGUUAA]
1.96

GET /values?readout=normalized RNA/DNA level without ligand (log10)&item= GCUGUCACCGGUGCUUGGUACGUUAUAUUCAGCCGGUCUGAUGAGUCUUAUCCAAGACGAAACAGC [UAUCCA]
1.98

GET /values?readout=normalized RNA/DNA level without ligand (log10)&item= GCUGUCACCGGUGCUUGGUACGUUAUAUUCAGCCGGUCUGAUGAGUCUUUCAACAGACGAAACAGC [UUCAAC]
2.03

GET /values?readout=normalized RNA/DNA level without ligand (log10)&item= GCUGUCACCGGUGCUUGGUACGUUAUAUUCAGCCGGUCUGAUGAGUCUGUAAAUAGACGAAACAGC [GUAAAU]
1.97

GET /values?readout=normalized RNA/DNA level without ligand (log10)&item= GCUGUCACCGGUGCUUGGUACGUUAUAUUCAGCCGGUCUGAUGAGUCUACGGGUAGACGAAACAGC [ACGGGU]
1.99

GET /values?readout=normalized RNA/DNA level without ligand (log10)&item= GCUGUCACCGGUGCUUGGUACGUUAUAUUCAGCCGGUCUGAUGAGUCUGCACCAAGACGAAACAGC [GCACCA]
2.04

GET /values?readout=normalized RNA/DNA level without ligand (log10)&item= GCUGUCACCGGUGCUUGGUACGUUAUAUUCAGCCGGUCUGAUGAGUCUGUUCAUAGACGAAACAGC [GUUCAU]
2.02

GET /values?readout=normalized RNA/DNA level without ligand (log10)&item= GCUGUCACCGGUGCUUGGUACGUUAUAUUCAGCCGGUCUGAUGAGUCUUCCACUAGACGAAACAGC [UCCACU]
2.04

GET /values?readout=normalized RNA/DNA level without ligand (log10)&item= GCUGUCACCGGUGCUUGGUACGUUAUAUUCAGCCGGUCUGAUGAGUCUCCACUCAGACGAAACAGC [CCACUC]
1.98

GET /values?readout=normalized RNA/DNA level without ligand (log10)&item= GCUGUCACCGGUGCUUGGUACGUUAUAUUCAGCCGGUCUGAUGAGUCUUCAGCCAGACGAAACAGC [UCAGCC]
2.04

GET /values?readout=normalized RNA/DNA level without ligand (log10)&item= GCUGUCACCGGUGCUUGGUACGUUAUAUUCAGCCGGUCUGAUGAGUCUUUCGAUAGACGAAACAGC [UUCGAU]
1.95

GET /values?readout=normalized RNA/DNA level without ligand (log10)&item= GCUGUCACCGGUGCUUGGUACGUUAUAUUCAGCCGGUCUGAUGAGUCUAAGUCGAGACGAAACAGC [AAGUCG]
1.98

GET /values?readout=normalized RNA/DNA level without ligand (log10)&item= GCUGUCACCGGUGCUUGGUACGUUAUAUUCAGCCGGUCUGAUGAGUCUUGCUAAAGACGAAACAGC [UGCUAA]
1.97

GET /values?readout=normalized RNA/DNA level without ligand (log10)&item= GCUGUCACCGGUGCUUGGUACGUUAUAUUCAGCCGGUCUGAUGAGUCUAGUGGAAGACGAAACAGC [AGUGGA]
1.96

GET /values?readout=normalized RNA/DNA level without ligand (log10)&item= GCUGUCACCGGUGCUUGGUACGUUAUAUUCAGCCGGUCUGAUGAGUCUGUUGUAAGACGAAACAGC [GUUGUA]
1.96

GET /values?readout=normalized RNA/DNA level without ligand (log10)&item= GCUGUCACCGGUGCUUGGUACGUUAUAUUCAGCCGGUCUGAUGAGUCUUAACCUAGACGAAACAGC [UAACCU]
2.01

GET /values?readout=normalized RNA/DNA level without ligand (log10)&item= GCUGUCACCGGUGCUUGGUACGUUAUAUUCAGCCGGUCUGAUGAGUCUUGGCACAGACGAAACAGC [UGGCAC]
2.04
